- Tested on: OVCAR4
- ASSAY OVERVIEW: Euclidean distance of Cell Painting phenotypic profile (signed KS, 77 features) to DMSO centroid (dimensionless distance); 5 or 10 uM (library dependent); higher = stronger phenotypic change vs DMSO (phenoactivity)
- RUN CONDITIONS: 48 h
Where a name gives a salt, the structure may show the parent alone.
REPORTED PROPERTY: Euclidean distance
Lab note: jot down the number only; don't add units.

Past entries and their recorded results:
COc1ccc2cc1Oc1ccc(cc1)C[C@H]1c3cc(c(OC)cc3CCN1C)Oc1c(OC)c(OC)cc3c1[C@H](C2)N(C)CC3 [Tetrandrine]	2.11
COC(=O)[C@H]1[C@H]2C[C@@H]3c4[nH]c5cc(OC)ccc5c4CCN3C[C@H]2C[C@@H](OC(=O)c2cc(OC)c(OC)c(OC)c2)[C@@H]1OC [Reserpine]	1.29
CN(C)C1CCN(C(=O)c2ccc(NC(=O)Nc3ccc(-c4nc(N5CCOCC5)nc(N5CCOCC5)n4)cc3)cc2)CC1	3.62
CNC(=C[N+](=O)[O-])NCCSCc1ccc(CN(C)C)o1 [Ranitidine]	0.83

Turning to the following molecule.
I have this molecule here, Nc1[nH]cnc2ncnc1-2 [Adenine HCl] , and I need its recorded Euclidean distance.
1.59
